- targetEntity: BRG-1 (Homo sapiens, UniProt P51532)
- Construct: made in house; host or cells: High Five insect cells
- Sequence (P51532 whole entry): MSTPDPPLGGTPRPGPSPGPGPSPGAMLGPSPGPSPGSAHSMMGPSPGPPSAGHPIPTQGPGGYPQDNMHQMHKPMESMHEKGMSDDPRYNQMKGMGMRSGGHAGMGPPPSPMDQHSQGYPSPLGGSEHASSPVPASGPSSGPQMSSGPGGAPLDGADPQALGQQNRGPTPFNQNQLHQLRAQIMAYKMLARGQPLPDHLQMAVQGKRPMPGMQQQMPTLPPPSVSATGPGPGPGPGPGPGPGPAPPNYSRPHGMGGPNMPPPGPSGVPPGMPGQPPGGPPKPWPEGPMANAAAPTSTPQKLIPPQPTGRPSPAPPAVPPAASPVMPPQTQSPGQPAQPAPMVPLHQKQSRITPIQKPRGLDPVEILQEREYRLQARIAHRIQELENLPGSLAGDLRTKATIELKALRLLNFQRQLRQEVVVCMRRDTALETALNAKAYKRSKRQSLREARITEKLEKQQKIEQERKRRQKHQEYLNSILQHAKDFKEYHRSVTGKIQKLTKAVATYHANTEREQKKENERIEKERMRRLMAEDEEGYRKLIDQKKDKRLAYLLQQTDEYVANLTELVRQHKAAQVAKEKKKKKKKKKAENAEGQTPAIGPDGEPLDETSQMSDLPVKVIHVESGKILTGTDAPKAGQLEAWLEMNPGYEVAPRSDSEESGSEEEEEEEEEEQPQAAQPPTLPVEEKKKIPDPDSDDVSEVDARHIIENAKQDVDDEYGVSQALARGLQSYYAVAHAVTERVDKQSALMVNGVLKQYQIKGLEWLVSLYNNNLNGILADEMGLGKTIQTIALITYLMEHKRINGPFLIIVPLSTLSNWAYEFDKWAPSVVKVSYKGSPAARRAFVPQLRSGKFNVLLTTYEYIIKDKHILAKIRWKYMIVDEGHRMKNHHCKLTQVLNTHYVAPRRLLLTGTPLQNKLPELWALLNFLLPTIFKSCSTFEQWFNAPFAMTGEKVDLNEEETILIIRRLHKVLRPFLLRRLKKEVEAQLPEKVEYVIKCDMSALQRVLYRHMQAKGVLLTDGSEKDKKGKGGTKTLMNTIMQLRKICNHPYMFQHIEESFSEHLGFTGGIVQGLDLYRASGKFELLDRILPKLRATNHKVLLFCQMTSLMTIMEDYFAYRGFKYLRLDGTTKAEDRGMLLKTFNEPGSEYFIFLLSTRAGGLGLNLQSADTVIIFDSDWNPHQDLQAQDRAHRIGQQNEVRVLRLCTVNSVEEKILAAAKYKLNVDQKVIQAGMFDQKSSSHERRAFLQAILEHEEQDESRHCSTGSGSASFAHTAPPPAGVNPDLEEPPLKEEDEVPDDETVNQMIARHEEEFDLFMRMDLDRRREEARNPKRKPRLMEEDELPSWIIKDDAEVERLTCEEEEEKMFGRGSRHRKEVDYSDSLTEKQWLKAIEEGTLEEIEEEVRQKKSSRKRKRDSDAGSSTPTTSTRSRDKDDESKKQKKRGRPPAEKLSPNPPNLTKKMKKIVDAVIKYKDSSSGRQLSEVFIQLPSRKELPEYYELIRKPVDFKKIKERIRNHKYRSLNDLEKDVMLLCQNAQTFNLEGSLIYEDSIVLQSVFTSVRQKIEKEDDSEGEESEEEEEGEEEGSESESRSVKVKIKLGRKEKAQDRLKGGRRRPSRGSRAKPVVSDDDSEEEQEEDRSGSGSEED
- testProtocol: ATPase catalytic activity of BRG-1, ADP-Glo in vitro biochemical assay
- conditionInfo: ATPase catalytic activity, ADP-Glo; 30 nM BRG-1, 400 μM ATP; read-out: BRG1 IC50
- Method: The ATPase catalytic activity of BRM or BRG-1 was measured by an in vitro biochemical assay using ADP-Glo™ (Promega, V9102). The ADP-Glo™ kinase assay is performed in two steps once the reaction is complete. The first step is to deplete any unconsumed ATP in the reaction. The second step is to convert the reaction product ADP to ATP, which will be utilized by the luciferase to generate luminesce and be detected by a luminescence reader, such as Envision. […]
pIC50: −log10 of the molar value.
propertyName: pIC50

O=C(NCc1cc2nc(N3CCOc4cc(Cl)c(C5CC5)nc43)ccc2cn1)c1ccc2c(c1)S(=O)(=O)CCOC2 | 5.33
COc1nc(-c2ccc3cnc(CNC(=O)c4cc(F)c5c(c4)S(=O)(=O)[C@@H](C)COC5)cc3n2)ccc1C(F)F | 6.66
COCc1nc2c(cc1Cl)CCCN2c1ccc2cnc(CNC(=O)c3ccc4c(c3)S(=O)(=O)CCOC4)cc2n1 | 6.13
O=C(NCc1cc2nc(N3CCOc4cc(C(F)F)cnc43)ccc2cn1)c1ccc2c(c1)S(=O)(=O)CCOC2 | 6.86
COc1cc(C(F)F)ccc1-c1ccc2cnc(CNC(=O)c3ccc4c(c3)S(=O)(=O)[C@@H](C)COC4)cc2n1 | 6.65

(A) O=C(NCc1cc2nc(-c3cccc(OCC4CCC4)n3)ccc2cn1)c1ccc2c(c1)S(=O)(=O)CCOC2
(B) COCc1cnc2c(c1)CCCN2c1ccc2cnc(CNC(=O)c3ccc4c(c3)S(=O)(=O)CCOC4)cc2n1
Lab note: check whether A or B has the lower measured pIC50. Answer = label. A

(a) CO[C@@H](C)c1ccc2c(n1)N(c1ccc3cnc(CNC(=O)c4ccc5c(c4)S(=O)(=O)CCOC5)cc3n1)CCC2
(b) Cc1cnc2c(c1)OCCN2c1ccc2cnc(CNC(=O)c3cc(C)c4c(c3)S(=O)(=O)CCOC4)cc2n1
# query: argmin of pIC50 over a and b Write down the label of the entry you select. a
(a: 6.08, b: 6.88)

(1) COCc1ccc2c(n1)N(c1ccc3cnc(CNC(=O)c4ccc5c(c4)S(=O)(=O)CCOC5)cc3n1)CCC2
(2) COCCc1cnc2c(c1)CCCN2c1ccc2cnc(CNC(=O)c3ccc4c(c3)S(=O)(=O)CCOC4)cc2n1
From the items above, decide which of 1 and 2 has the lower pIC50 reading. Answer by quoting the chosen item's label. 1
(1: 6.18, 2: 6.85)

----------
- targetEntity: BRM (Homo sapiens, UniProt P51531)
- Construct: made in house; host or cells: High Five insect cells
- Sequence (P51531 whole entry): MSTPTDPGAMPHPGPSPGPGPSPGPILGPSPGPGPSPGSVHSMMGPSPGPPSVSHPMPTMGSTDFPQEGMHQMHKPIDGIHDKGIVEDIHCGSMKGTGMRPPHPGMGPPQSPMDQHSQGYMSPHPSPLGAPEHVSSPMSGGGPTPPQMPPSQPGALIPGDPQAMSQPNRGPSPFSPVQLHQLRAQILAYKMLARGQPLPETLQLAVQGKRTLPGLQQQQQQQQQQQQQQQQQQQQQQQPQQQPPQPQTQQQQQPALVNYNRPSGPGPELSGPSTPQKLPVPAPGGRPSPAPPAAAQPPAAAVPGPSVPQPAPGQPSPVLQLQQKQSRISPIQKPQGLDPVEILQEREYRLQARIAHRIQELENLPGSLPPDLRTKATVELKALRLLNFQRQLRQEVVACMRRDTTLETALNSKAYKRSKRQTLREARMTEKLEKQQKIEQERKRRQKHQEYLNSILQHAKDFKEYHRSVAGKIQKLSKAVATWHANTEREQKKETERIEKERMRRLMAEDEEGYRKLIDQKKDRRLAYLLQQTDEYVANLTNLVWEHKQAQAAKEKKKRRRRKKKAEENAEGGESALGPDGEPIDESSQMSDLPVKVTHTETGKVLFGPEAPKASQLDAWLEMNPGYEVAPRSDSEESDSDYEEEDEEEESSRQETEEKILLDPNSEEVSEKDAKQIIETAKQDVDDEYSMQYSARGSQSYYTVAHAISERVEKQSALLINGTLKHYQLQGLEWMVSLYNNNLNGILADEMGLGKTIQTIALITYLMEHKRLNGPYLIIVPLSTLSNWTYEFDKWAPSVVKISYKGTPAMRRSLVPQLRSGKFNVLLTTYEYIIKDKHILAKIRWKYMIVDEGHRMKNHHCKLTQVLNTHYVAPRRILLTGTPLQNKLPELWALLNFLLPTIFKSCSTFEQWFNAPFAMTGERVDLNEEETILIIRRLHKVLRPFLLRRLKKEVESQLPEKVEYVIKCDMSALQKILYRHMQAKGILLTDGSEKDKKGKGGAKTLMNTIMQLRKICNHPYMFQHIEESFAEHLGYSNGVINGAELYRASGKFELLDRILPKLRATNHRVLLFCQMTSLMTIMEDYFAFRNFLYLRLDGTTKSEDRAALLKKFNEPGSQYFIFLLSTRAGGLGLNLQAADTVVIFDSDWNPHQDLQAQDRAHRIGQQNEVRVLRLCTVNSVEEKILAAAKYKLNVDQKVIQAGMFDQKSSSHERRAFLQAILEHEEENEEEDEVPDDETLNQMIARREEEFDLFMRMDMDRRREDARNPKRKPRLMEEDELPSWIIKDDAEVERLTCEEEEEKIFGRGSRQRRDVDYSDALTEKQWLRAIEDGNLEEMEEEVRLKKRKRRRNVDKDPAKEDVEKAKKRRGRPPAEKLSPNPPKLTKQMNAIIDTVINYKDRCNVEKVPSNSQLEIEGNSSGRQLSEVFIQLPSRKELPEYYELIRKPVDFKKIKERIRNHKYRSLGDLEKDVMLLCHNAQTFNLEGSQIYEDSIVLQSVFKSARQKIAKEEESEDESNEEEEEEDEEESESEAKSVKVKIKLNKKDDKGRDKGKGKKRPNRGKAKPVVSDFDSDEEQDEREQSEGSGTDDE
- testProtocol: ATPase catalytic activity of BRM, ADP-Glo in vitro biochemical assay
- conditionInfo: ADP-Glo ATPase assay, 30 nM BRM, 400 μM ATP
pIC50: −log10 of the molar value.
propertyName: pIC50

// solved cases for pIC50 follow
O=C(NCc1cc2nc(-c3cccc(N4CCOCC4)n3)ccc2cn1)c1ccc2c(c1)S(=O)(=O)CCOC2 | 7.95
COCCN(C)c1cccc(-c2ccc3cnc(CNC(=O)c4ccc(Cl)c(S(C)(=O)=O)c4)cc3n2)n1 | 7.69
O=C(NCc1cc2nc(-c3ccc4ccn(CC(F)F)c4n3)ccc2cn1)c1ccc2c(c1)S(=O)(=O)CCOC2 | 7.45
Cn1ccc(-c2cccc(-c3ccc4cnc(CNC(=O)c5ccc6c(c5)S(=O)(=O)CCOC6)cc4n3)c2)n1 | 7.68
CCOc1cccc(-c2ccc3cnc(CNC(=O)c4cc(F)c5c(c4)S(=O)(=O)CCOC5)cc3n2)n1 | 7.61
O=C(NCc1cc2nc(-c3ccccc3OC(F)F)ccc2cn1)c1ccc2c(c1)S(=O)(=O)CCOC2 | 6.98

(P) CN(c1cnc2c(c1)OCCN2c1ccc2cnc(CNC(=O)c3ccc4c(c3)S(=O)(=O)CCOC4)cc2n1)C1CCC1
(Q) Cc1cnc2c(c1)N(C1CC1)CCN2c1ccc2cnc(CNC(=O)c3ccc4c(c3)S(=O)(=O)CCOC4)cc2n1
For the pair P and Q , which member has the lower pIC50 number? Answer = label. Q
(Q: 7.92, P: 8.19)

(P) C[C@@H]1CN(c2cccc(-c3cnc4cnc(CNC(=O)c5ccc6c(c5)S(=O)(=O)CCOC6)cc4n3)c2)C[C@H](C)O1
(Q) O=C(NCc1cc2nc(-c3cccc(N4CCC4)n3)ccc2nn1)c1ccc2c(c1)S(=O)(=O)CCOC2
Between the entries labelled P and Q , which has a larger pIC50 value on record? State the label of the item chosen. Q
(Q: 8.10, P: 7.89)

(A) COc1cc2c(cc1F)CCCN2c1ccc2cnc(CNC(=O)c3ccc4c(c3)S(=O)(=O)CCOC4)cc2n1
(B) O=C(NCc1cc2nc(N3CCCc4ccc(C5CCC5)nc43)ccc2cn1)c1ccc2c(c1)S(=O)(=O)CCOC2
Given the two records A and B , choose the one whose pIC50 value is lower. Field: selected label. Fill in the label of the entry you choose. A

(A) O=C(NCc1cc2nc(-c3cccc(C4CC4)n3)ccc2cn1)c1cc(F)c2c(c1)S(=O)(=O)CCOC2
(B) O=C1CS(=O)(=O)c2cc(C(=O)NCc3cc4nc(-c5cccc(C6CC6)c5)ccc4cn3)ccc2CN1
(C) CC(C)Oc1cccc(-c2ccc3cnc(CNC(=O)c4ccc5c(c4)S(=O)(=O)CCOC5)cc3n2)n1
(D) COc1ccc2c(c1)N(c1ccc3cnc(CNC(=O)c4ccc5c(c4)S(=O)(=O)CCOC5)cc3n1)CCO2
Order by pIC50, ascending. # the answer lists labels in the order requested B, C, A, D
